Experiment: Mouse pharmacokinetic experiment
Format: in vivo
Conditions: male, ICR mice, IV 3 mg/kg, plasma
// values below are reported AUC(0-t)
QUANTITY NAME: AUC(0-t) (ng·h/mL)

{"columns": ["COMPOUND", "OBS VALUE"],
 "data": [
  ["[2H]C([2H])([2H])N(C(=O)c1cc2c(cc1F)nc(N)c1cncn12)[C@@H]1COc2cc(C(F)(F)F)ccc21 [Example 41]", 5420],
  ["CN(C(=O)c1ccc2nc(N)c3cncn3c2c1)[C@@H]1COc2cc(S(F)(F)(F)(F)F)ccc21 (single isomer, unassigned) [Example 104]", 10500],
  ["CN(C(=O)c1cc2c(cn1)nc(N)c1cncn12)[C@@H]1COc2cc(C(F)(F)F)ccc21 [Example 4]", 8090],
  ["CN(C(=O)c1ccc2nc(N)c3cncn3c2c1)[C@@H]1COc2cc(C(F)(F)C(F)(F)F)ccc21 [Example 130]", 10800],
  ["CN(C(=O)c1ccc2nc(N)c3cncn3c2c1)[C@@H]1COc2cc(C(F)(F)F)ccc21 [Example 107]", 11200],
  ["[2H]C([2H])([2H])N(C(=O)c1ccc2nc(N)c3cncn3c2c1)[C@@H]1COc2cc(C(F)(F)F)ccc21 [Example 16]", 9710]
]}

---

Experiment: Mouse pharmacokinetic experiment
Type: in vivo
Conditions: male, plasma, ICR mice, IV 3 mg/kg
QUANTITY NAME: half-life (min)

{"columns": ["COMPOUND", "OBS VALUE"],
 "data": [
  ["CN(C(=O)c1ccc2nc(N)c3cncn3c2c1)[C@@H]1COc2cc(C(F)(F)F)ccc21", 272],
  ["CN(C(=O)c1ccc2nc(N)c3cncn3c2c1)[C@@H]1COc2cc(S(F)(F)(F)(F)F)ccc21 (single isomer, unassigned)", 366],
  ["CN(C(=O)c1cc2c(cn1)nc(N)c1cncn12)[C@@H]1COc2cc(C(F)(F)F)ccc21", 244],
  ["[2H]C([2H])([2H])N(C(=O)c1cc2c(cc1F)nc(N)c1cncn12)[C@@H]1COc2cc(C(F)(F)F)ccc21", 258],
  ["CN(C(=O)c1ccc2nc(N)c3cncn3c2c1)[C@@H]1COc2cc(C(F)(F)C(F)(F)F)ccc21", 270],
  ["[2H]C([2H])([2H])N(C(=O)c1ccc2nc(N)c3cncn3c2c1)[C@@H]1COc2cc(C(F)(F)F)ccc21", 219]
]}

---

Assay: Mouse pharmacokinetic experiment
Assay type: in vivo
Conditions: male, plasma, ICR mice, PO 10 mg/kg vs IV 3 mg/kg, read-out: Bioavailability F

{"columns": ["COMPOUND", "MEASURE UNIT", "bioavailability"],
 "data": [
  ["CN(C(=O)c1ccc2nc(N)c3cncn3c2c1)[C@@H]1COc2cc(S(F)(F)(F)(F)F)ccc21 (single isomer, unassigned)", "%", 74]
]}

---

Target: hERG ion channel (Homo sapiens, UniProt Q12809)
Sequence (Q12809 whole entry): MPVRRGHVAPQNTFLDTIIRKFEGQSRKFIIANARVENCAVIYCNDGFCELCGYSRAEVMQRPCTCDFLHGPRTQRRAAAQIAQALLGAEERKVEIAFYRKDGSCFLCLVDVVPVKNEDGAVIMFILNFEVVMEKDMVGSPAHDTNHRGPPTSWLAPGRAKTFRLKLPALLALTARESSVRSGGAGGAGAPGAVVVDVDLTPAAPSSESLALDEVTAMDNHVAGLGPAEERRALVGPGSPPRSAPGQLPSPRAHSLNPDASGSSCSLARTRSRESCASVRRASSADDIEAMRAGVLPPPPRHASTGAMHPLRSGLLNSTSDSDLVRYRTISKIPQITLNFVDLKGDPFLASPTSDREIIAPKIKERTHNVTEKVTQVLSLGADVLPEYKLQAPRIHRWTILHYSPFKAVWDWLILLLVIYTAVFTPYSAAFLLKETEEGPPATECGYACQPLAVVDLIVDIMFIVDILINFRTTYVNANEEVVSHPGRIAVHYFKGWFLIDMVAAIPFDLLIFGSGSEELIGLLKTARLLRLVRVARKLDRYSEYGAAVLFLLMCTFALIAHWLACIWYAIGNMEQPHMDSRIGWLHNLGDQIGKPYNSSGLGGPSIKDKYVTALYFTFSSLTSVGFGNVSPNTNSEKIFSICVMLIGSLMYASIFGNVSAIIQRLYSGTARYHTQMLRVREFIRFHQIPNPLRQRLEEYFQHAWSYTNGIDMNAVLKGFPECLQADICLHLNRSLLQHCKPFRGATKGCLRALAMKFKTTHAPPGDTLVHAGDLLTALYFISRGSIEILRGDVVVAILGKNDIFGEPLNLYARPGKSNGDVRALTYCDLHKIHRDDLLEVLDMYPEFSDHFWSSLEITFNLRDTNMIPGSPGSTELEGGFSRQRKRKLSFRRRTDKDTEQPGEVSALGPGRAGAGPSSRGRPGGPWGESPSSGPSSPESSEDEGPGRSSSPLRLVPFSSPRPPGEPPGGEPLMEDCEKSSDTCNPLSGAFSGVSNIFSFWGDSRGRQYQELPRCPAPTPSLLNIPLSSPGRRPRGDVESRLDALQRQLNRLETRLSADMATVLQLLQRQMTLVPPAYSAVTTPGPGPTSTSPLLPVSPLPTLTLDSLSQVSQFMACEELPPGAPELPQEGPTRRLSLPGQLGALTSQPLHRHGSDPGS
Test: hERG ion channel inhibition experiment (manual patch clamp, HEK293 cells)
Details: HEK293 cells stably expressing hERG, whole-cell patch clamp, n=2
QUANTITY NAME: IC50 (µM)

{"columns": ["MOLECULE", "OBS VALUE"],
 "data": [
  ["CN(C(=O)c1ccc2nc(N)c3cncn3c2c1)[C@@H]1COc2cc(C(F)(F)C(F)(F)F)ccc21", 1.36],
  ["[2H]C([2H])([2H])N(C(=O)c1ccc2nc(N)c3cncn3c2c1)[C@@H]1COc2cc(C(F)(F)F)ccc21", 2.3],
  ["[2H]C([2H])([2H])N(C(=O)c1cc2c(cc1F)nc(N)c1cncn12)[C@@H]1COc2cc(C(F)(F)F)ccc21", 8.16],
  ["CN(C(=O)c1ccc2nc(N)c3cncn3c2c1)[C@@H]1COc2cc(C(F)(F)F)ccc21", 4.5],
  ["CN(C(=O)c1cc2c(cn1)nc(N)c1cncn12)[C@@H]1COc2cc(C(F)(F)F)ccc21", 5.29],
  ["CN(C(=O)c1ccc2nc(N)c3cncn3c2c1)[C@@H]1COc2cc(S(F)(F)(F)(F)F)ccc21 (single isomer, unassigned)", 1.51]
]}

---

System: HCT-116 MTAP wild-type cells
Assay: Inhibitory activity on proliferation of HCT-116 MTAP wild-type cells (Cell-Titer Glo, 8 days)
Type: cell-based
Conditions: Homo sapiens, HCT-116, 192 h, 8 days incubation
pIC50: −log10 of the molar value.
// values below are reported pIC50

{"columns": ["COMPOUND", "TARGET OR SYSTEM", "pIC50"],
 "data": [
  ["N#Cc1ccc2c(c1)OC[C@@H]2N(C(=O)c1ccc2nc(N)c3cncn3c2c1)C1CC1 (single isomer, unassigned)", "HCT-116 MTAP wild-type cells", "< 4.70"],
  ["CN(C(=O)c1ccc2nc(N)c3cncn3c2c1)[C@H]1COCc2ccc(C(F)(F)F)cc21 (single isomer, unassigned)", "HCT-116 MTAP wild-type cells", "< 5.00"],
  ["CN(C(=O)c1ccc2nc(N)c3cncn3c2c1)[C@@H]1COc2nc(C(F)(F)F)ccc21 (single isomer, unassigned)", "HCT-116 MTAP wild-type cells", "< 5.00"],
  ["CN(C(=O)c1cc2c(cc1F)nc(N)c1cncn12)[C@@H]1CCOc2cc(-c3cnn(C(F)(F)F)c3)ccc21", "HCT-116 MTAP wild-type cells", "< 5.00"],
  ["CN(C(=O)c1ccc2nc(N)c3cncn3c2c1)[C@@H]1CSc2cc(S(=O)(=O)C3CC3)ccc21", "HCT-116 MTAP wild-type cells", "< 5.00"],
  ["CN(C(=O)c1ccc2nc(N)c3cncn3c2c1)[C@H]1COc2nc(C(F)(F)F)ccc21 (single isomer, unassigned)", "HCT-116 MTAP wild-type cells", "< 5.00"],
  ["CN(C(=O)c1cc2c(cc1F)nc(N)c1cncn12)[C@H]1COc2cc(C(F)(F)F)ccc21", "HCT-116 MTAP wild-type cells", "< 5.00"],
  ["CN(C(=O)c1ccc2nc(N)c3cncn3c2c1)C1CCOCc2cc(C(F)(F)F)ccc21 (stereo not drawn)", "HCT-116 MTAP wild-type cells", "< 5.00"],
  ["Cc1ncc(-c2ccc3c(c2)OCC3N(C(=O)c2ccc3nc(N)c4cncn4c3c2)C2CC2)cn1 (stereo not drawn)", "HCT-116 MTAP wild-type cells", "< 4.70"]
]}

Hey, just so you know, these numbers are from patent US12173002B2.
